Attribution: patent US11253479B2

assay: In-vivo study of bioavailability in dogs of capsules filled with salts; conditions: dog, plasma, po, 118.6 mg salt per capsule; male dogs, dosed once orally, capsules; without dose normalization; mean

compound	Cmax (ng/mL)
Br.Cc1cc(C#N)cc(C)c1Oc1nc(Nc2ccc(C#N)cc2)nc(N)c1Br [HBr salt]	366

* * *

assay: In-vivo study of bioavailability in dogs of capsules filled with salts; conditions: dog, plasma, po, 118.6 mg salt per capsule; male dogs, dosed once orally, capsules; without dose normalization; mean; read-out: AUC0-last (without dose normalization)
reported-endpoint: AUC(0-t) (ng·h/mL)

molecule	unit-label	quantitative-result
Br.Cc1cc(C#N)cc(C)c1Oc1nc(Nc2ccc(C#N)cc2)nc(N)c1Br [HBr salt]	ng·h/mL	5860
